Cited source: patent US9434711B2

- Tested System: canine TRPM8 (Canis lupus familiaris, UniProt Q1A7N1)
- Sequence (Q1A7N1 1-1104): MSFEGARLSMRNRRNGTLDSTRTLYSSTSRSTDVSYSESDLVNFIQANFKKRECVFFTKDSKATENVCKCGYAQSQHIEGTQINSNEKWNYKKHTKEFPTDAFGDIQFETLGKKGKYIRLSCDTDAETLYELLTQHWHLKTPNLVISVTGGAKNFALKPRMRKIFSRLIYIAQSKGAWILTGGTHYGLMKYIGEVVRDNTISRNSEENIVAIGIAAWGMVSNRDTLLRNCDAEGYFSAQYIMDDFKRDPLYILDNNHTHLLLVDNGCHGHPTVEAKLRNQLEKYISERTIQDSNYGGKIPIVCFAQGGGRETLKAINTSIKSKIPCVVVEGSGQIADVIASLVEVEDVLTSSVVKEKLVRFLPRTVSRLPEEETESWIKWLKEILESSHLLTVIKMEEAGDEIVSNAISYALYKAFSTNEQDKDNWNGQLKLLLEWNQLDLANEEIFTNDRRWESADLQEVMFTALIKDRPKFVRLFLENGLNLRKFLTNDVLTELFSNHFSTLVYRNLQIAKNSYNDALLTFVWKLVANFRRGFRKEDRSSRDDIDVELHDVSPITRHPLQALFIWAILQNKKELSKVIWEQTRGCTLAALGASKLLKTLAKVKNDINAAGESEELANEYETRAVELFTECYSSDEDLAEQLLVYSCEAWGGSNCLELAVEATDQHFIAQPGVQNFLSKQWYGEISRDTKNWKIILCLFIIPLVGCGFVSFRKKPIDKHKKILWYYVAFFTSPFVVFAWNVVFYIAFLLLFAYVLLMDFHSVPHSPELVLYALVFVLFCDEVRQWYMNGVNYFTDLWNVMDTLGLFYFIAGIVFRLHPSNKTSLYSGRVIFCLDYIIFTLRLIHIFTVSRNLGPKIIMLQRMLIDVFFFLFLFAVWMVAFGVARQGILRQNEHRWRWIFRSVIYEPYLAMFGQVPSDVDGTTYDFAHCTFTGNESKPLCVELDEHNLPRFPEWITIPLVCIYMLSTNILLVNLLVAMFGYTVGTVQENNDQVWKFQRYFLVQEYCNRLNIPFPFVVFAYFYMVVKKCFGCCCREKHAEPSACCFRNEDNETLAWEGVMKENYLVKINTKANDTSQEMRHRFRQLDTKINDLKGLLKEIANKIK
- Assay: In Vitro Canine TRPM8 Functional Assay (Ca2+ fluorescence, icilin activation)
- Type: cell-based
- Condition Set: HEK293 cells stably expressing canine TRPM8; icilin activation; eight-point dose-response; read-out: IC50
Assay Readout: IC50 (nM)

As a guide, the following entries are already answered.
Compound: O=S(=O)(c1ccccc1)N(Cc1ccncc1)c1sc2ccccc2c1Br
IC50, nM: 44.5
--
Compound: CCS(=O)(=O)N(CC1CC1)c1sc2ccccc2c1Br
IC50, nM: 67
--
Compound: CCCCN(c1cc2ccccc2s1)S(=O)(=O)c1ccc(C(N)=NC(=O)CO)cc1
IC50, nM: 40
--
Compound: CC1=C(N(CCC(F)(F)F)S(=O)(=O)c2ccccc2)S(=O)(=O)c2ccccc21
IC50, nM: 39.8
--
Compound: CSCCN(c1cc2ccccc2s1)S(=O)(=O)c1ccccc1
IC50, nM: 156
--
Compound: COc1ccccc1CN(c1sc2ccccc2c1Br)S(=O)(=O)c1ccccc1
IC50, nM: 35.8
--
Compound: Cc1c(N(CCC(F)(F)F)S(=O)(=O)CC(F)(F)F)sc2ccccc12
IC50, nM: 34.5
--
Compound: COC(=O)CCS(=O)(=O)N(Cc1ccc(OC(F)(F)F)cc1)c1sc2ccccc2c1C
IC50, nM: 29.4
--
Compound: Cc1c(N(Cc2ccc(OC(F)(F)F)cc2)S(=O)(=O)c2ccc(C(=O)O)cc2)sc2ccccc12
IC50, nM: 0.8
--
Compound: CCCCN(c1sc2ccccc2c1C)S(=O)(=O)c1ccc(C(=O)[O-])cc1.[Na+]
IC50, nM: 6

A. Cc1c(N(Cc2ccc(F)c(C(F)(F)F)c2)S(=O)(=O)c2ccc(-c3cnco3)cc2)sc2ccccc12
B. CC(C)CN(c1sc2ccccc2c1Br)S(=O)(=O)c1ccc(C(=O)O)cc1
Request: I need your help: which of the pair A , B has higher IC50? Give the chosen item's label as your response.
Response: B
